# Target desc: Gal(a1-3)Gal(b1-4)GlcNAc
# Procedure summary: glycan array binding signal (z-score within array); higher = stronger binding
# Measurement setup: glycan notation: IUPAC condensed, linker removed
Only a selection was taken, and the strongest signals are over-represented in it overall.
Measurement type: glycan array binding signal (z-score)
Numbers only.

Below: 4 binders and their reported glycan array binding signal (z-score).
| Binder | glycan array binding signal (z-score) |
| --- | --- |
| rCNL (Clitocybe nebularis), B2ZRS9 (protein) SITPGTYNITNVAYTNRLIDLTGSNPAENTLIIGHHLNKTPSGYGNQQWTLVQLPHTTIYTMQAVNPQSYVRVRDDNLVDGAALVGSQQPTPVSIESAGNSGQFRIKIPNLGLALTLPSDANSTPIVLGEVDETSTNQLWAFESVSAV | -0.098 |
| EUL D1A (Oryza sativa) (protein) MFGFGHHHNQAPAAPSDPNQIFKIFCRANENYCLTVRDSAVVLAPVNPKDEHQHWFKDMRFSTKVKDGEGMPAFALVNKATGLAVKHSLGQSHPVKLVPFNPEYEDASVLWTESKDVGKGFRCIRMVNNTRLNLDAFHGDKDHGGVRDGTTVVLWEWCKGDNQSWKILPWGPEAHSSSPGAATACTIGGVPVHTVRVFSAAGEDYCLTVRNGTACLAPKNPRDDYQHWIKDMRHSNKIRDEEGYPAFALVNKVTGEAIKHSTGQGHPVKLVPYNPEYQDESVLWTESKDVGKGFRCIRMVNNIYLNFDAFHGDKDHGGIHDGTEIVLWKWCEGDNQRWKILPWILEQKLISEEDLNSAVDHHHHHH | -0.8 |
| RegIIIalpha (Mus musculus), O09037 (protein) MLPHLVLNSISWMLLSCLLFVFQVQGEDFQKEVPSPRTSCPMGYKAYRSHCYALVMTPKSWFQADLVCQKRPSGHLVSILSGGEASFVSSLVNGRVDNYQDIWIGLHDPTMGQQPNGGGWEWSNSDVLNYLNWDGDPSSTVNRGHCGSLTASSGFLKWGDYYCDGTLPFVCKFKQ | -0.089 |
| MAA (Maackia amurensis), P0DKL3 (protein) MATSNSKPTQVLLATFLTFFFLLLNNVNSSDELSFTINNFVPNEADLLFQGEASVSSTGVLQLTRVENGQPQKYSVGRALYAAPVRIWDNTTGSVASFSTSFTFVVKAPNPDITSDGLAFYLAPPDSQIPSGSVSKYLGLFNNSNSDSSNQIVAVELDTYFAHSYDPWDPNYRHIGIDVNGIESIKTVQWDWINGGVAFATITYLAPNKTLIASLVYPSNQTTFSVAASVDLKEILPEWVRVGFSAATGYPTEVETHDVLSWSFTSTLEANCDAATENNVHIARYTA | -0.243 |

Proceed to the following item.
Enquiry: Tell me glycan array binding signal (z-score) reported for SEX4 (Arabidopsis thaliana), Q944A8 (protein) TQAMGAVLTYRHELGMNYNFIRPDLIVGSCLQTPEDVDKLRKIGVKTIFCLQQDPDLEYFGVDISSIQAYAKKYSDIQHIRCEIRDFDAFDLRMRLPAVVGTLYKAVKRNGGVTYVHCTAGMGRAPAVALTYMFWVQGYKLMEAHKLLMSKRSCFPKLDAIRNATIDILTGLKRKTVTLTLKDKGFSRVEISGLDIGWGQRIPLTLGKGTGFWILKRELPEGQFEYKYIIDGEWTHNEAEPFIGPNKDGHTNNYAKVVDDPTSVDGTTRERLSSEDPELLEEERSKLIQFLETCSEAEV
Return: 0.108
